I'd be grateful if you could share measured growth AUC normalised to DMSO control for these entries.
- System: Yersinia pseudotuberculosis
- measurement protocol: growth AUC normalised to DMSO control (fraction of control); higher = less growth inhibition, active = hit call of the paper
- protocol conditions: 20 µM
Counter-ions that a name gives are not always drawn.
Numbers only.

Here is how some compounds turned out for growth AUC normalised to DMSO control.
compound	growth AUC normalised to DMSO control
Cc1c(NC(C)C)c(=O)n(-c2ccccc2)n1C [Isopyrin hydrochloride]	0.982
Cc1cc(C(C)(C)C)cc(C)c1CC1=NCCN1 [Xylometazoline hydrochloride]	0.989
CC(C)(C)C(=O)OCOC(=O)[C@@H]1N2C(=O)[C@@H](/N=C/N3CCCCCC3)[C@H]2SC1(C)C [Pivmecillinam hydrochloride]	0.0551
CCCCCN(CCCCC)C(=O)C(CCC(=O)O)NC(=O)c1ccc(Cl)c(Cl)c1 (configuration not stated) [Lorglumide sodium salt]	1.01
c1cnc(N2CCN(Cc3ccc4c(c3)OCO4)CC2)nc1 [Piribedil]	1.01
C#C[C@]1(O)CC[C@H]2[C@@H]3CCC4=CC(=O)CC[C@@H]4[C@H]3CC[C@@]21CC [(D-) Norgestrel]	0.979
O=C(C1CCCCC1)N1CC(=O)N2CCc3ccccc3C2C1 (configuration not stated) [Praziquantel]	0.996
Cc1ccc(S(=O)(=O)NC(=O)NN2CC3CCCC3C2)cc1 (configuration not stated) [Gliclazide]	0.987
Nc1nc(NC2CC2)c2ncn([C@H]3C=C[C@@H](CO)C3)c2n1 [Abacavir sulfate]	0.971
Cc1cc(-c2ccccc2)nnc1NCCN1CCOCC1 [Minaprine dihydrochloride]	1

Record growth AUC normalised to DMSO control per entry; entries follow.
1. C[C@]12CC[C@@H]3c4ccc(OS(=O)(=O)O)cc4CC[C@H]3[C@@H]1CCC2=O [Estropipate piperazine salt]
2. CC(C)C(=O)Nc1ccc([N+](=O)[O-])c(C(F)(F)F)c1 [Flutamide]
3. CC(C)COCC(CN(Cc1ccccc1)c1ccccc1)N1CCCC1 (configuration not stated) [Bepridil hydrochloride]
4. N=C(N)NC(=O)Cc1c(Cl)cccc1Cl [Guanfacine hydrochloride]
5. NS(=O)(=O)c1cc(C(=O)O)cc(N2CCCC2)c1Oc1ccccc1 [Piretanide]

result:
[0.965, 0.988, 1.02, 0.988, 1.01]

Record growth AUC normalised to DMSO control per entry; entries follow.
1. CCOc1ccccc1OCC1CNCCO1 (configuration not stated) [Viloxazine hydrochloride]
2. COc1ccc2c(c1)C(=O)N(CCc1ccc(S(=O)(=O)NC(=O)NC3CCCCC3)cc1)C(=O)C2(C)C [Gliquidone]

result:
1: 0.961; 2: 1

* * *

- Test system: Vibrio cholerae
- measurement protocol: growth AUC normalised to DMSO control (fraction of control); higher = less growth inhibition, active = hit call of the paper
- protocol conditions: 20 µM
Counter-ions that a name gives are not always drawn.
I'd be grateful if you could share measured growth AUC normalised to DMSO control for these entries.

Here is how some compounds turned out for growth AUC normalised to DMSO control.
compound	reported
CCOC(=O)C1=C(COCCN)NC(C)=C(C(=O)OC)C1c1ccccc1Cl (centres undefined) [Amlodipine]	0.985 (inactive)
C[C@]12CC[C@H]3[C@@H](CCC4=CC(=O)CC[C@@]43C)[C@@H]1CC[C@@H]2C(=O)CO [Deoxycorticosterone]	1.03 (inactive)

Record growth AUC normalised to DMSO control per entry; entries follow.
1. CN1CCC(OC(c2ccccc2)c2ccccc2)CC1 [Diphenylpyraline hydrochloride]
2. O=C(O)c1cc(/N=N/c2ccc(S(=O)(=O)Nc3ccccn3)cc2)ccc1O [Sulfasalazine]
3. COC(=O)Nc1nc2cc(C(=O)c3ccc(F)cc3)ccc2[nH]1 [Flubendazol]
4. Nc1cc(-c2ccncc2)c[nH]c1=O [Amrinone]
5. C1N2CN3CN1CN(C2)C3 [Methenamine]

result:
["0.962 (inactive)", "1.01 (inactive)", "0.993 (inactive)", "1.07 (inactive)", "1.05 (inactive)"]

Record growth AUC normalised to DMSO control per entry; entries follow.
1. O=C(Nc1cccc2c(=O)cc(-c3nnn[nH]3)oc12)c1ccc(OCCCCc2ccccc2)cc1 [Pranlukast]
2. CCN(CC)CCNC(=O)COc1ccc(OC)cc1 [Mefexamide hydrochloride]

result:
1: 1 (inactive); 2: 0.995 (inactive)
